test system: Caski (HPV16+) cells; test: Cell proliferation/viability assay, Caski cells; type: cell-based; settings: Homo sapiens, Ca-Ski, 96 h, 4 days
IC50 strictly less than 10 µM = 1. Otherwise 0.

Query: Is 10 µM strictly greater than the molecule's reported IC50? molecule: COc1cc(F)cc(-c2cc(C)cc3nc(OC(F)F)cnc23)c1 [Example 21]
Response: 0

* * *

Molecular target: PAR4 (Homo sapiens, UniProt Q96RI0)
Sequence (Q96RI0 18-385): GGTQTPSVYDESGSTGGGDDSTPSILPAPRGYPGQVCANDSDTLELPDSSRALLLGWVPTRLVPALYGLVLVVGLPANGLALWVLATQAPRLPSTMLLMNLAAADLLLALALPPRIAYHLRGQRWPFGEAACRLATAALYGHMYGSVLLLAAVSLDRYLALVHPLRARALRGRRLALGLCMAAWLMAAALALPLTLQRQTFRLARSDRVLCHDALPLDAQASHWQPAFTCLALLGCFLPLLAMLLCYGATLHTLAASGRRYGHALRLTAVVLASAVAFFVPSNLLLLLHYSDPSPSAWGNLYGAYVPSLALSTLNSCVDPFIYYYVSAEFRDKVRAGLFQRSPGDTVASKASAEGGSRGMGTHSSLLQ
Experiment: PAR4 FLIPR assay (calcium mobilization, antagonist activity) in PAR4-expressing HEK293 cells
Text: The FLIPR assay is an exemplary in vitro assay for measuring the activity of the PAR4 antagonists of the present invention. In this assay, intracellular calcium mobilization is induced in PAR4 expressing cells by a PAR4 agonist and calcium mobilization is monitored. HEK293 cells stably expressing PAR4 were generated by a standard method of transfection of human PAR4 (F2R23) cDNA expression vector and selected based on PAR4 protein expression or mRNA expression. […]
Response field label: string, one of T (IC50 strictly below 2000 nM) or F.

Example entries begin here.
{"compound": "COc1cc(F)cc(-c2cc(C)cc3nc(OC(F)F)cnc23)c1 [Example 21]", "class label": "F"}
{"compound": "Cc1cc(-c2ccc(Cl)cc2Cl)c2ncc(OC(F)F)nc2c1 [Example 23]", "class label": "T"}
{"compound": "C#Cc1cc(-c2ccc(OC)cc2)c2ncc(OC(F)F)nc2c1 [Example 5]", "class label": "T"}
{"compound": "Cc1cc(-c2ccc(C(F)(F)F)cc2)c2ncc(OC(F)F)nc2c1 [Example 19]", "class label": "T"}
{"compound": "Cc1cc(-c2ccc(Cl)c(Cl)c2)c2ncc(OC(F)F)nc2c1 [Example 24]", "class label": "F"}

Query: Criterion: IC50 strictly below 2000 nM. Is it met by COc1ccc(-c2cc(C)cc3nc(OC(F)F)cnc23)cc1 [Example 6] ?
Response: F

Query: Regarding COC(=O)c1cc(-c2ccc(OC)cc2)c2ncc(OC(F)F)nc2c1 [Example 4] , kindly confirm whether its IC50 is beneath 2000 nM.
Response: T

Query: Confirm or reject: IC50 of COc1ccc(-c2cc(C(F)(F)F)cc3nc(OC(F)F)cnc23)cc1 [Example 8] lies strictly below 2000 nM
Response: T

Query: Problem: For the compound Cc1cc(-c2ccc(F)c(F)c2)c2ncc(OC(F)F)nc2c1 [Example 22] , is IC50 under 2000 nM?
Response: T

Query: Take the compound Cc1cc(-c2ccc(OC(F)(F)F)cc2)c2ncc(OC(F)F)nc2c1 [Example 20] and say whether its IC50 is less than 2000 nM.
Response: T

Query: Find out if reported IC50 for C=Cc1cc(-c2ccc(OC)cc2)c2ncc(OC(F)F)nc2c1 [Example 3] is less than 2000 nM
Response: T
